system: UACC-257 melanoma; experiment: NCI tumour cell line growth inhibition, 48 h
This section presents molecules with their documented TGI values.
VALUE_KIND: TGI

>>> result("CN(/N=C/c1cccc2cccnc12)c1c([N+](=O)[O-])cc([N+](=O)[O-])cc1[N+](=O)[O-]")
"> 100 µM"
>>> result("C=CCCCCOC1C=CC(O)C(CO)O1 (stereo not drawn)")
"> 100 µM"
>>> result("CC(C)(C)OC(=O)c1cccnc1/C=N/O")
"> 100 µM"
>>> result("COC(=O)/C=c1\\s/c(=C\\C(=O)OC)c2ccccc12")
"> 100 µM"
>>> result("Cc1ccc(NCCN(C)C)c2c(=O)c3ccccc3sc12")
"3.83 µM"
>>> result("O=C(CCc1nnc2s/c(=C\\c3ccccc3Cl)c(=O)n12)Nc1cc(Cl)ccc1Cl")
"> 100 µM"
>>> result("CCn1c(=O)c2nc(SC)sc2n(-c2ccccc2)c1=O")
"> 100 µM"
>>> result("CCOC(=O)C(O)(C(=O)OCC)c1cc(C(C)(C)C)c(O)c(C(C)(C)C)c1")
"> 100 µM"
>>> result("Cc1ccc2oc3c(c(Br)c(Br)n3C)c(=O)c2c1")
"> 100 µM"
>>> result("COc1cccc2cc(C(C)=O)c(=O)oc12")
"> 100 µM"
>>> result("CCOC(=O)c1cc(C2CCN(c3ccccc3)C2=O)c(C(=O)/C=C(/C)N)[nH]1 (stereo not drawn)")
"> 100 µM"
>>> result("O=C1CSC2=NC3=C(CSC/C3=C\\c3ccccc3)C(c3ccccc3)N12 (stereo not drawn)")
"> 100 µM"
>>> result("CC(=O)NNc1nc(C)c(C(=O)NNC(=O)C(=O)Nc2ccc([N+](=O)[O-])cc2C#N)s1")
"> 100 µM"
>>> result("CCCC1(CCC)c2cc(/C=N\\O)ccc2-c2ccc(-c3ccc(C(C)(C)C)cc3)cc21")
"> 100 µM"
>>> result("COc1cc(NC=C2C(=O)OC(C)(C)OC2=O)c(OC)c(C)c1OC")
"> 100 µM"
>>> result("O=S(=O)(/N=C(\\NO)Nc1ccc(Cl)cc1)c1ccccc1")
"26.6 µM"
>>> result("NNC(=O)c1ccc(OCc2nc3ccccc3[nH]2)cc1")
"> 100 µM"
>>> result("CC1=C[C@H]2C[C@H](C)[C@H]3CC[C@H](C)[C@]4(C1)C(=O)C(O)=C(C)C(=O)[C@@]324")
"> 100 µM"
>>> result("O=C(Nc1ccccc1O)c1ccc(NS(=O)(=O)c2cccc3cccnc23)cc1")
"5.25 µM"
>>> result("COc1ccc2nc3n(c2c1)C(=O)c1ccccc1-3")
"> 100 µM"
>>> result("COC1CCC(=O)N1CN(C(C)=O)c1ccc(C)cc1 (stereo not drawn)")
"> 100 µM"
>>> result("CCOC(=O)c1ccc2c(c1)[n+](=O)c(C(C)=O)c(C(F)(F)F)n2[O-]")
"3.5 µM"
>>> result("N#C/C(N)=C(\\C#N)N=CNc1ccc(N)cc1")
"> 100 µM"
>>> result("CCOC(=O)C(C)c1nc2ccc(C(F)(F)F)cc2[nH]c1=O (stereo not drawn)")
"> 100 µM"
>>> result("NC(=S)N=Nc1c(O)c2ccccc2c2ccccc12")
"3.31 µM"
>>> result("COc1cccc(C2C3=C(COC3=O)N(CCO)c3cc4c(cc32)OCO4)c1 (stereo not drawn)")
"> 50 µM"
>>> result("COC(=O)[C@@H]1CC(C(CN)c2cn(C(=O)OC(C)(C)C)c3ccccc23)C(=O)N1C(=O)OC(C)(C)C (stereo partly drawn)")
"32.2 µM"
>>> result("Nc1nc(N)c2cc(Sc3cccc(C(F)(F)F)c3)ccc2n1")
"3.36 µM"
>>> result("COc1ccc(C(CC(=O)c2ccccc2)C(C(=O)c2ccccc2)C(c2ccc(OC)cc2)C2C(=O)NC(=S)NC2=O)cc1 (stereo not drawn)")
"52.7 µM"
>>> result("C=CCN(c1cc(OC)c2[nH]c(C(=O)OCC)c(C)c2c1[N+](=O)[O-])S(C)(=O)=O")
"> 100 µM"
>>> result("O=c1cc(-c2ccccc2)oc2cc(OC/C(=N/O)c3ccc(F)cc3)ccc12")
"> 50 µM"
>>> result("O=C1c2ccccc2C(=O)c2c(NCC3CO3)ccc(NCC3CO3)c21 (stereo not drawn)")
"23.9 µM"
>>> result("Cc1cc(Nc2cc(N3CCN(C)CC3)nc(Sc3ccc(NC(=O)C4CC4)cc3)n2)n[nH]1")
"> 10 µM"

====

This section presents compounds with their documented TGI values.
test system: RPMI-8226 leukemia; experiment: NCI tumour cell line growth inhibition, 48 h
VALUE_KIND: TGI

>>> result("O=C(CCc1nnc2s/c(=C\\c3ccccc3Cl)c(=O)n12)Nc1cc(Cl)ccc1Cl")
"> 100 µM"
>>> result("C=CCOc1ccccc1C1(O)c2ccccc2C2=NCCCN21 (stereo unspecified)")
"> 100 µM"
>>> result("Nc1nc(=O)n([C@@H]2CS[C@H](CO)O2)cc1F")
"> 100 µM"
>>> result("COc1cc2c(cc1C1=NC(C)(C)CO1)OCO2")
"> 100 µM"
>>> result("CCOc1ccc(O)cc1[P+](c1ccccc1)(c1ccccc1)c1ccccc1")
"26.5 µM"
>>> result("CN(C)c1cccc2c1C(=O)C=CC21CCc2ccc(N(C)C)c3c(N(C)C)ccc1c23 (stereo unspecified)")
"58.6 µM"

====

tested on: BT-549 breast; assay: NCI tumour cell line growth inhibition, 48 h
VALUE_KIND: TGI

>>> result("CCN(CC)c1ccc2cc(C(=O)Nc3ccc(C)cc3)c(=N)oc2c1")
"> 100 µM"
>>> result("O=S(=O)(O)Oc1cc2c(c(OS(=O)(=O)O)c1)C[C@H](OS(=O)(=O)O)[C@@H](c1ccc(OS(=O)(=O)O)c(OS(=O)(=O)O)c1)O2")
"> 100 µM"
>>> result("O=C(Nc1nnc(-c2c(Cl)c(Cl)c(Cl)c(Cl)c2-c2nc3cc(C(=O)c4ccccc4)ccc3[nH]2)o1)c1ccc(Cl)cc1")
"> 100 µM"
>>> result("COc1cc(C2C3=C(COC3=O)N(CCO)c3cc4c(cc32)OCO4)cc(OC)c1O (centres undefined)")
"> 34.3 µM"

====

tested on: COLO 205 colon; assay: NCI tumour cell line growth inhibition, 48 h
VALUE_KIND: TGI

>>> result("CN(/N=C/c1cccc2cccnc12)c1c([N+](=O)[O-])cc([N+](=O)[O-])cc1[N+](=O)[O-]")
"> 100 µM"
>>> result("C#COc1cccc(Nc2ncnc3cc(NC(=O)[C@H](C)Cl)ccc23)c1")
"> 62.5 µM"
>>> result("C#CC1(O)CCC2[C@@H]3CCc4cc(Oc5nc(F)nc(-c6c7ccccc7cn6C)n5)ccc4C3CC[C@@]21C (some centres undefined)")
"> 100 µM"
>>> result("CCOC(=O)CN1CC(C2=C(O)CN(CC(=O)OCC)C2=O)=CC1=O")
"> 100 µM"

====

system: SR leukemia; assay: NCI tumour cell line growth inhibition, 48 h
VALUE_KIND: TGI (µM)

>>> quantitative_result("NC(=S)N=Nc1c(O)c2ccccc2c2ccccc12")
35.8
>>> quantitative_result("Cc1cc(Cl)ccc1Nc1nc(C(F)(F)F)ccc1C(=O)N/N=C/c1ccccc1Cl")
0.768
>>> quantitative_result("COc1ccc(Cn2cc3c(c2-c2ccccc2)CCc2cnoc2-3)cc1N")
4.25
>>> quantitative_result("S=C(N1CCN(c2cccc(Cl)c2)CC1)N1CCN(c2cccc(Cl)c2)CC1")
32.4

====

This section presents compounds with their documented TGI values.
system: HCC-2998 colon; assay: NCI tumour cell line growth inhibition, 48 h
VALUE_KIND: TGI

>>> result("COC1OC(C)C2OC(C)(C)OC2C1OC(C)=O (configuration not stated)")
"> 100 µM"
>>> result("Cc1ccc(C)c(NC(=O)CC2SC(=Nc3ccccc3Cl)NC2=O)c1 (configuration not stated)")
"> 100 µM"
>>> result("Cc1ccc2[nH]c3[nH]c(=S)[nH]c(=O)c3c2c1")
"> 100 µM"
>>> result("CNS(=O)(=O)OCC1OC(n2cnc3c(N)ncnc32)C(O)C1O (configuration not stated)")
"> 100 µM"
>>> result("CSCCCNC(=O)c1csc(-c2csc(CCNC(=O)CNC(=O)CNC(=O)OC(C)(C)C)n2)n1")
"> 100 µM"
>>> result("CC(=O)c1cc(C(=O)c2ccc3c(c2)Sc2ccccc2N3)c2c(C)cccn12")
"> 100 µM"
>>> result("Cc1c(N2C(=O)/C(=C/c3ccc(N(CCC#N)CCC#N)cc3)N=C2c2ccccc2)c(=O)n(-c2ccccc2)n1C")
"> 100 µM"
>>> result("c1ccc2c(c1)ccn1ccc3c4ccccc4nc-3c21")
"1.16 µM"
>>> result("COc1ccc(-n2c(=O)n(-c3ccccc3)c(=O)n2-c2ccc(OC)cc2)cc1")
"> 100 µM"
>>> result("O=C(Nc1ccccc1O)c1ccc(NS(=O)(=O)c2cccc3cccnc23)cc1")
"5.23 µM"
>>> result("Cc1cccc(NC(=O)/C=C/c2ccc([N+](=O)[O-])cc2)c1")
"32.7 µM"
>>> result("O=[N+]([O-])/C(C(Cl)=C(Cl)Cl)=C(\\N1CCCCC1)n1nnc2ccccc21")
"26.2 µM"
